Some compounds, each annotated with its measured % Inhibition.
Tested on: P. falciparum stage V gametocytes
Design: BacTiter-Glo ATP luminescence viability of purified stage V gametocytes in 384-well plates, per cent inhibition versus DMSO
Conditions: 48 h, 5 µM; inhibitor
Hit rate of the full screen: of about 13,000 compounds, about 3,200 (25%) showed an effect of 50% or more. The list shows a part of the results.
Give the value in % but do not write % after it.

# Compound, % Inhibition, %
records = [
    ("O=C(c1cc2c(s1)-c1cccc(Cl)c1SC2)N1CCN(c2ccncc2)CC1", 30.1),
    ("C1=CN(Cc2ccccc2)C=CC1=C1C=Nc2ccccc21", 1.652),
    ("c1ccc(-c2cccc(-c3ccccn3)n2)nc1", -15.75),
    ("CCCN(C(=O)c1ccccc1C)c1nnc(-c2ccccc2C)s1", 7.474),
    ("CCC(C)OC(=O)C1=C(C)NC2=C(C(=O)CC(c3ccc(OC)c(OC)c3)C2)C1c1ccc(O)cc1 (stereo not drawn)", 13.43),
]

The compound identified as `O=C(NC1CCN(Cc2ccc3c(c2)OCCO3)CC1)c1ccc(-c2cccc(Cl)c2)s1` registered its % Inhibition at 2.147
